Data origin: ChEMBL document CHEMBL1201862

- TARGET_OF_ASSAY: Peroxisome proliferator-activated receptor gamma/Nuclear receptor coactivator 3 (Homo sapiens);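 further: agonist potency for raising coactivator recruitment to the receptor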
- Sequence (P37231 whole entry): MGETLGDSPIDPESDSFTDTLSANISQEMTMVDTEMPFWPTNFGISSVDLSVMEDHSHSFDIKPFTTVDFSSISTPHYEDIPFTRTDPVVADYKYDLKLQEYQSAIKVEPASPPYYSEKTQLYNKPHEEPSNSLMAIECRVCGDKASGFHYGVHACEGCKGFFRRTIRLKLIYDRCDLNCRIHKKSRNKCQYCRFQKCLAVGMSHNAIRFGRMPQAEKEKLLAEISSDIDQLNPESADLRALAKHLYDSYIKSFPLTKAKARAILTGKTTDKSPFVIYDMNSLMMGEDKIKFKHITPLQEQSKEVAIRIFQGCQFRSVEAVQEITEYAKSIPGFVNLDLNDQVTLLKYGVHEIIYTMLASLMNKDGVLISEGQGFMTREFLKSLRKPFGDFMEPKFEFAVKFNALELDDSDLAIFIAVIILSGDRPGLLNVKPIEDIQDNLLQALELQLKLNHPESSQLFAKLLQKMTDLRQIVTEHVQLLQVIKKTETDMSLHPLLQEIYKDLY
- Sequence (Q9Y6Q9 whole entry, further chain): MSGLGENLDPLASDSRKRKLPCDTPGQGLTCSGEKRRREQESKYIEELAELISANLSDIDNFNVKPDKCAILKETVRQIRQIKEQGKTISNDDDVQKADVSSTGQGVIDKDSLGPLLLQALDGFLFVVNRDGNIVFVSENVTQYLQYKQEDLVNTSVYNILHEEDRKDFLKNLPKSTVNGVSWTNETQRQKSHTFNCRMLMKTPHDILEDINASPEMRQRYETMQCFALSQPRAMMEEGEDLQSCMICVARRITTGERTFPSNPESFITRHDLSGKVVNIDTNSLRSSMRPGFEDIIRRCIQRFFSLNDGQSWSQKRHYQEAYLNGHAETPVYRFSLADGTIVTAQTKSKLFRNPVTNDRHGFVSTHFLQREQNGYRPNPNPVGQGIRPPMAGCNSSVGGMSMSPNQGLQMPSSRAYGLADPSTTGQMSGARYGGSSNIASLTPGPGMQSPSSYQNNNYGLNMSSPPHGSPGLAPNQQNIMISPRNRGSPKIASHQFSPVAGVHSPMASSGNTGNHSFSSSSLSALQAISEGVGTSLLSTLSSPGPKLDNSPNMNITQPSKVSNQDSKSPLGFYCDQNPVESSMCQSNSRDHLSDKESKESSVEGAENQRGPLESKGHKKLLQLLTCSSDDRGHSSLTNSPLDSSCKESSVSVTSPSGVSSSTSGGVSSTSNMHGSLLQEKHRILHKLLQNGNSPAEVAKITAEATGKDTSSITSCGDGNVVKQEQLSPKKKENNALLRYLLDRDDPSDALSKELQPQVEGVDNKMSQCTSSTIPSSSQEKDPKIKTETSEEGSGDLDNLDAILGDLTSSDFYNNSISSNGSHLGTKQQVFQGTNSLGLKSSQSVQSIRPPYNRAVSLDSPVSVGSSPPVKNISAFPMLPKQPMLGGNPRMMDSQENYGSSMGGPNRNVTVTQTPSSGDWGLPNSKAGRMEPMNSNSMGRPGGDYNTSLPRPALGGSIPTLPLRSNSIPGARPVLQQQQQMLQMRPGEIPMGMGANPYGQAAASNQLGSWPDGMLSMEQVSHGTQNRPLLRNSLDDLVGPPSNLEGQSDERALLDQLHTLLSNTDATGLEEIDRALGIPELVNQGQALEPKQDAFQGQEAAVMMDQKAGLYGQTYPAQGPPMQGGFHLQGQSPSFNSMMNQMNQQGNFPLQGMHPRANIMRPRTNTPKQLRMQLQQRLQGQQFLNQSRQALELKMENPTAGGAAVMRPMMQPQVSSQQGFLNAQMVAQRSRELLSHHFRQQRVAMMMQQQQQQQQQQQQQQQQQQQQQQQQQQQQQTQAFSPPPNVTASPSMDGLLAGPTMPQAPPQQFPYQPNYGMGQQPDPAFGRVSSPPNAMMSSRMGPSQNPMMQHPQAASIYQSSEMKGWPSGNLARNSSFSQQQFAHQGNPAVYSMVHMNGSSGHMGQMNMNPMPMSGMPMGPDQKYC
- Type: functional
MEASURED_QUANTITY: EC50

As a guide, the following entries are already answered.
LINE_NOTATION: Cc1cc(OCC(=O)Nc2ccc3oc(-c4ccncc4)nc3c2)ccc1Cl
EC50: 50.6 µM (not active)

LINE_NOTATION: Cc1ccc(-n2c(N)c(C(=O)N3CCN(C)CC3)sc2=S)cc1
EC50: > 79.4 µM (not active)

LINE_NOTATION: Cc1ccc(N/N=C2/C(=N)N(c3ccccc3)NC2=O)cc1
EC50: > 79.4 µM (not active)

From here, focus on the item given below.
Field request: EC50 | item: "COc1c(OC)c(O)c2c(=O)cc(-c3c(O)cccc3O)oc2c1OC" > 79.4 µM (not active)

---

- TARGET_OF_ASSAY: UniProtKB Q9XUB2
- Sequence (Q9XUB2 whole entry): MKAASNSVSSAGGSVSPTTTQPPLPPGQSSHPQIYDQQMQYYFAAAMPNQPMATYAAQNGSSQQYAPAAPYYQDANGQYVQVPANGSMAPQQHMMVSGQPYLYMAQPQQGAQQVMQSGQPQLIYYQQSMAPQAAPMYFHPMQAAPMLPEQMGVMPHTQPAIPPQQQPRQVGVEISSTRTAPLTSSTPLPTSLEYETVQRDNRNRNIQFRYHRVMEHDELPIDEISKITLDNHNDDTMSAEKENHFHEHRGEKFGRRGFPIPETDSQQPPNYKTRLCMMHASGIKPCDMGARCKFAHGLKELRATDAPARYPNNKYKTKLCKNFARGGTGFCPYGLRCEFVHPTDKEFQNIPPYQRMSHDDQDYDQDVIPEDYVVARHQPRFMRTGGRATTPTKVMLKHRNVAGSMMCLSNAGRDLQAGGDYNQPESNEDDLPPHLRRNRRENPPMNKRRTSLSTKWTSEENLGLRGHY
- ASSAY_TEXT: MEX-5/TCR-2 RNA interaction inhibitors, dose response, biochemical, C. elegans, fluorescence polarization (AID 1960)
The source made the active and inactive calls.
MEASURED_QUANTITY: EC50

As a guide, the following entries are already answered.
LINE_NOTATION: Cc1ccc(NNC2=C3N=NN=C3C=CC2=O)cc1
MEASURED_RESULT: 2.99 µM (active)

LINE_NOTATION: Oc1cccc(/C=N/N=C/c2cccc(O)c2O)c1O
MEASURED_RESULT: 24.6 µM (active)

LINE_NOTATION: CCOC(=O)N1CCN(C(=O)c2ccc3c(c2)NC(=O)/C(=C\c2ccc(OC)c(OC)c2)S3)CC1
MEASURED_RESULT: > 300 µM (inconclusive)

LINE_NOTATION: Cc1cccc(N(C)S(=O)(=O)c2nnc(NC(=O)c3ccco3)s2)c1
MEASURED_RESULT: > 300 µM (not active)

LINE_NOTATION: c1coc(-c2nc3ccccc3nc2-c2ccco2)c1
MEASURED_RESULT: 12 µM (active)

LINE_NOTATION: Cc1cc(C(=O)N/N=C/c2cc(Cl)cc([N+](=O)[O-])c2O)[nH]n1
MEASURED_RESULT: > 300 µM (inconclusive)

Field request: EC50 | item: "O=C(/C=C/c1c(Cl)cccc1Cl)N1CCOCC1" > 300 µM (not active)

Field request: EC50 | item: "COc1ccc2[nH]c(SCC(=O)Nc3nonc3C)nc2c1" 20.7 µM (inconclusive)

Field request: EC50 | item: "COC(=O)c1ccc(-n2c(C)ccc2-c2ccccc2)cc1" > 300 µM (not active)

Field request: EC50 | item: "Nc1cccc2c1C(=O)N(c1ccccc1)C2=O" 10.5 µM (active)

Field request: EC50 | item: "NC(=O)c1ccsc1N" 10.1 µM (inconclusive)

Field request: EC50 | item: "Cc1ccccc1N=Nc1c(O)n(C)c2ccccc12" > 300 µM (not active)

Field request: EC50 | item: "O=C(NNC(=O)c1ccccc1[N+](=O)[O-])c1cnccn1" 1.25 µM (active)

Field request: EC50 | item: "O=C(c1coc(=O)c(Br)c1)N1CCCc2ccccc21" > 300 µM (not active)

Field request: EC50 | item: "O=C(O)c1cc(-n2cccc2)ccc1N1CCOCC1" 74.3 µM (active)
